// provenance: ChEMBL document CHEMBL2094269

# Tested on: MRC5
# assay-summary: DNDI: Cytotoxicity against human MRC-5 lung fibroblast cells.
Reported values of IC50 for individual entries

Worked examples, 5 compounds total:
compound: O=C(CCc1ccccc1)N/N=C/c1ccc(O)c2ncccc12
IC50: > 20.8 µM
//
compound: Cc1ccc2[nH]c3c(c2c1)CCCC3CN (stereo unspecified)
IC50: > 20.8 µM
//
compound: CC1=NN(c2cccc(Cl)c2)C(=O)/C1=C\NNC(=O)c1ccccc1
IC50: 4.6 µM
//
compound: Cc1ccc(-c2cnc3ccccc3[n+]2C)c(C)c1
IC50: > 10.4 µM
//
compound: COc1ccc(C(NC(=O)C(C)C)c2ccc3cccnc3c2O)cc1OC (stereo unspecified)
IC50: > 4.17 µM

IC50 of COc1ccc2[nH]c(C)c(CCNCCC3=C(C)CCCC3(C)C)c2c1 , assay on MRC5, is 4.92 µM

* * *

# assay-summary: DNDI: Cytotoxicity against human MRC-5 lung fibroblast cells.
# run-conditions: IC50
observation-type: IC50

compound: Cc1ccnc(NC(c2ccc3cccnc3c2O)c2sccc2C)c1 (stereo unspecified)
recorded-measurement: > 20.8 µM
//
compound: O=C(CC(Nc1ccc2ccccc2c1)c1ccncc1)c1cccnc1 (stereo unspecified)
recorded-measurement: > 41.7 µM
//
compound: COC(=O)C(NC(=O)c1c(Cl)sc2nnsc12)C(C)C (stereo unspecified)
recorded-measurement: > 4.17 µM
//
compound: COc1ccc2c(C)cc(Sc3cccc4cccnc34)nc2c1
recorded-measurement: > 41.7 µM
//
compound: CCc1cc(C2CCCN2C(=O)c2c(F)cccc2Cl)on1 (stereo unspecified)
recorded-measurement: > 41.7 µM

# evaluate next
In plain terms, CC1=CC(C)(C)N=C(Nc2nc(C)c3cc(C)cc(C)c3n2)N1 has a documented IC50 of 5.93 µM

* * *

Reported values of IC50 for individual entries
# Test system: Leishmania donovani
# assay-summary: DNDI: Inhibition of formation of Leishmania donovani (strain MHOM/ET/67/L82) axenic amastigotes, in vitro.
# Format: functional, organism-based
Please format your answer as a value with the unit trailing.

Worked examples, 4 molecules total:
chemical-structure: O=C(NCCc1n[nH]c(-c2ccc(F)cc2)n1)c1cccc(F)c1
IC50: 15.5 µM
//
chemical-structure: CCS(=O)(=O)N1CCCc2ccc(NS(=O)(=O)c3ccccc3F)cc21
IC50: 2.63 µM
//
chemical-structure: CCc1ccccc1/N=C(\NCCN1CCOCC1)NC(=O)c1ccccc1
IC50: 83.9 µM
//
chemical-structure: CC(C)(C)C(=O)NCCc1csc(-c2cccc(F)c2)n1
IC50: 14.1 µM

# evaluate next
IC50 of Cc1cc(=O)[nH]c(-n2nc(C)cc2NC(=O)C2CCCC2)n1 , assay on Leishmania donovani, is 0.143 µM

* * *

# assay-summary: DNDI: Cytotoxicity against human MRC-5 lung fibroblast cells.
# run-conditions: IC50
observation-type: IC50

Worked examples, 6 molecules total:
molecule: Clc1ccc2nnnc(-c3ccccc3)c2c1
IC50: 4.48 µM
//
molecule: CCOc1ccc(OCc2ccc(C(=O)N3CCCC(C)C3)cc2)cc1 (centres undefined)
IC50: > 41.7 µM
//
molecule: CC1=NN(c2cccc(Cl)c2)C(=O)/C1=C\NNC(=O)c1ccccc1
IC50: > 4.17 µM
//
molecule: CCN(CC)c1ccc(C2N(C)c3ccccc3N2C)cc1
IC50: > 41.7 µM
//
molecule: N#Cc1ccc(-c2ccncc2)nc1SCCN1CCCCC1
IC50: > 41.7 µM
//
molecule: CCn1c(SCC(=O)N/N=C(\C)c2ccc(O)c(OC)c2)nc2ccccc21
IC50: > 41.7 µM

In plain terms, O=C(NCCc1n[nH]c(-c2ccc(F)cc2)n1)c1cccc(F)c1 has a documented IC50 of > 41.7 µM

In plain terms, N=C(NOC(=O)N1CCOCC1)c1ccc(Br)cc1 has a documented IC50 of > 20.8 µM
